Measurement Description: Xamoterol concentration in plasma and brain after s.c. injection
Format: in vivo
Conditions Used: C57Bl/6, mouse, brain, sc; mice, 3 mg/kg s.c., 2 hours; read-out: Brain
Assay Readout: concentration at 2 h (ng/mL)
Respond with the bare value in ng/mL.

**Q:** Look up and report measured concentration at 2 h for this entry: O=C(NCCNCC(O)COc1ccc(O)cc1)N1CCOCC1 (racemic)
**A:** 125

###

Measurement Description: Xamoterol concentration in plasma and brain after s.c. injection
Type: in vivo
Conditions Used: C57Bl/6, mouse, plasma, sc; mice, 3 mg/kg s.c., 1 hour; read-out: Plasma
Assay Readout: concentration at 1 h (ng/mL)
Respond with the bare value in ng/mL.

**Q:** Look up and report measured concentration at 1 h for this entry: O=C(NCCNCC(O)COc1ccc(O)cc1)N1CCOCC1 (racemic)
**A:** 45.1
